Target: human SIRPα v2 expressed on cells (CHOK1 stable line KYinno KC-1720) (human) (UniProt P78324)
Experiment: FACS, CHOK1-hSIRPα v2 cells
Overview of recorded pEC50 for various binders
In textbook form, pEC50 equals minus log to base ten of the concentration in mol/L.

Which pEC50 value is on record for hu025.023 (antibody, V domains shown) VH: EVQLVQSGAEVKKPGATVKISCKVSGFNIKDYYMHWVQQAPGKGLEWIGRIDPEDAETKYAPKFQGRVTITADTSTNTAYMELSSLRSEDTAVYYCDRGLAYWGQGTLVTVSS VL: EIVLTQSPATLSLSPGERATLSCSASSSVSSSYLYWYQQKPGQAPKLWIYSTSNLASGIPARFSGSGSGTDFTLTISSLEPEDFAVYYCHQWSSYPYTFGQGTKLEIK ? 9.09

---
Record request: pEC50 value, item hu025.021 (antibody, V domains shown) VH: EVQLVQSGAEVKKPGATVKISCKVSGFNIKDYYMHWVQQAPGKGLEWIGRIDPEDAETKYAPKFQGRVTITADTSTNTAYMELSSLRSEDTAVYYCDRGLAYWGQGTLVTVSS VL: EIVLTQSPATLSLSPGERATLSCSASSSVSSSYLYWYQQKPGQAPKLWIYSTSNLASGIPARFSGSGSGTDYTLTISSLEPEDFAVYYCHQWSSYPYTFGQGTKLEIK 9.06
